Test system: Plasmodium falciparum
ASSAY TEXT: Calibr Malaria Delayed Death Assay SOP
Assay type: functional, organism-based
Set-up: scale not given: in the data most compounds retested in dose-response had high values
DETAILS: concentration 4.99e-06 (unit not given; other assays of the set use mol/L)
About 1,200 (3.2%) of roughly 38,000 compounds showed an effect of 50% or more. The median lay at about -58%. The entries come from a sample that favours strong results as a whole.
Exam item: assign fulfilled to entries whose Percent Effect is below -50% and not fulfilled to entries at or above -50%. Note that a value of exactly -50% receives not fulfilled.

Example results:
• COc1cc(I)c(Cl)cc1C(=O)N(C)CC(=O)NC(C)(C)C = not fulfilled
• Cn1ncc2c1CCCC2NCc1cccc(OC2CCCC2)c1 (stereo not drawn) = not fulfilled
• CCOc1ccc(Cl)cc1CCNC(=O)Cn1nc(C)ccc1=O = fulfilled
• Cc1nc(N2CCCC2)nc2c1CCN(C(=O)C(C)C)CC2 = fulfilled
• Cc1nn(CCNS(=O)(=O)NCc2ccccc2)c(C)c1Cl = fulfilled
• O=C(O)C(F)(F)F.c1cnc(N2CCC3(CC2)CN(CC2CC2)c2ccccc23)nc1 = not fulfilled
• CCCOC1Sc2nnc(C)n2N=C1c1ccccc1 (stereo not drawn) = fulfilled
• NC(=O)Nc1ccc(C(=O)NCCn2cccc2)cc1 = fulfilled

Lab note: confirm whether the reported Percent Effect for this compound is below -50%, equality not counting. compound: c1cnc(N2CC3(CCN(C4CCOC4)CC3)c3ccccc32)nc1 (stereo not drawn)
fulfilled

Record `Cc1occc1C(=O)N1C[C@@H]2OCCN(CCN3CCCC3)[C@@H]2C1.O=C(O)C(F)(F)F.O=C(O)C(F)(F)F` : is its Percent Effect strictly below -50%?
fulfilled

Is the reported Percent Effect for Cc1ccsc1C(Cc1ccccc1)NC(=O)CSCC(N)=O (stereo not drawn) strictly below -50%?
not fulfilled

Does this compound meet the criterion Percent Effect < -50%? CS(=O)(=O)N1CCC2(CC1)CN(CC1CCOC1)c1ccccc12.O=C(O)C(F)(F)F (stereo not drawn)
fulfilled

Dear colleague, could you confirm whether Percent Effect of Cc1nn(C)c2nc(NCCCN3CCCC(C(N)=O)C3)sc12 (stereo not drawn) falls below -50%? Thanks.
fulfilled
